Cited source for all entries: patent US11083707B2

# Tested on: DENV-4 strain H241
# assay.explanation: Tetravalent RT-qPCR assay Protocol A, serotype 4
# Type: cell-based
# test.conditions: Dengue virus, DENV4, 72 h; RT-qPCR serotype 4 H241, Vero cells, day 3
# Method: The antiviral activity of the compounds of the invention was tested against DENV-1 strain TC974#666 (NCPV), DENV-2 strain 16681, DENV-3 strain H87 (NCPV) and DENV-4 strain H241 (NCPV) in a RT-qPCR assay. Therefore, Vero cells were infected with either DENV-1, or -2, or -3, or -4 in the presence or absence of test compounds. […] In addition, CC50 values are determined based on the Cp values acquired for the housekeeping gene β-actin. […]
measure.name: EC50 (nM)

INSERT INTO results (compound, measure_name, experimental_value) VALUES
  ('COc1cc(NC(C(=O)N2CCc3c(C)cc(OC(F)(F)F)cc32)c2ccc(Cl)cc2OCCCC(=O)O)cc(-n2cncn2)c1 (single isomer, unassigned) [Compound 16B]', 'EC50', 5.3),
  ('COc1cc(NC(C(=O)N2CCc3cc(OC)c(C(F)(F)F)cc32)c2ccc(F)cc2OCCO)cc(-n2cncn2)c1 (single isomer, unassigned)', 'EC50', 150),
  ('COc1cc(NC(C(=O)N2CCc3c(C)cc(OC(F)(F)F)cc32)c2ccc(Cl)cc2OCCO)cc(-n2cncn2)c1 (single isomer, unassigned) [Compound 10B]', 'EC50', 32),
  ('COc1cc(NC(C(=O)N2CCc3cc(F)c(OC(F)(F)F)cc32)c2ccc(Cl)cc2OCCO)cc(-n2cncn2)c1 (single isomer, unassigned)', 'EC50', 87),
  ('COc1cc(NC(C(=O)N2CCc3ccc(C(F)(F)F)cc32)c2ccc(Cl)cc2OCCCC(=O)O)cc(-n2cncn2)c1 (single isomer, unassigned) [Compound 11B]', 'EC50', 20);
